- target.or.system: human PCSK9 (Homo sapiens, UniProt Q8NBP7)
- Sequence (Q8NBP7 153-692): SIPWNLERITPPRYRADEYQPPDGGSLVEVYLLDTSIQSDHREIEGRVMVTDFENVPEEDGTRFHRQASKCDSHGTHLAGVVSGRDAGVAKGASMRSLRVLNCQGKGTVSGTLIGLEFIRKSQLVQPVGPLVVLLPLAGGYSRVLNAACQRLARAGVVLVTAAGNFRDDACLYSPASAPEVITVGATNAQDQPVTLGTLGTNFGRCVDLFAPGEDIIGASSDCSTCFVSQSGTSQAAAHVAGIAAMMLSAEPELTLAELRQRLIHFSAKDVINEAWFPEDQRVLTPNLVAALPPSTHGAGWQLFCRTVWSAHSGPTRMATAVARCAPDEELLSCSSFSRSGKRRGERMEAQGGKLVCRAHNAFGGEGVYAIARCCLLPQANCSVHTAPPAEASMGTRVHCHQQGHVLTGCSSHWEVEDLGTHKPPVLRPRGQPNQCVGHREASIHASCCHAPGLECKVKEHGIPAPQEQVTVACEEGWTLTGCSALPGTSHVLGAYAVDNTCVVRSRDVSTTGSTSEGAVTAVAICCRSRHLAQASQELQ
- Sequence (Q8NBP7 31-152 partner limits assumed): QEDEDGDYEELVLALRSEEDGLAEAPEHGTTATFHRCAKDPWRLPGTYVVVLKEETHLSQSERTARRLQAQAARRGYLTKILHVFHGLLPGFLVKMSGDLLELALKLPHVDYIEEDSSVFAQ
- assay.text: PCSK9 ligand binding TR-FRET assay (interference with binding of human PCSK9 to human LDLR)
- conditions.used: TR-FRET; human PCSK9 Alexa Fluor 647 / human LDLR extracellular domain-Europium Kryptate; read-out: PCSK9 FRET Assay IC50
experimental.endpoint: IC50 (nM)

>  <compound>
COC[C@@H]1NC(=O)[C@H](C)N(Cc2ccc(Cl)cc2Oc2ccc(-c3nnc4n3CCN(C(=O)[C@H]3CCNC3)C4)cc2)C(=O)C[C@@H](Cc2ccccc2)C(=O)N(C)[C@@H](C)CNC(=O)C[C@H](Cc2ccc(Cl)cc2)N(C)C1=O [Compound 131]

>  <IC50 / nM>
9.9

$$$$
>  <compound>
COC[C@@H]1NC(=O)[C@H](C)N(Cc2ccc(Cl)cc2Oc2ccc(-c3cnc(CN4CCCC4)n3C)c(F)c2)C(=O)C[C@@H](Cc2ccccc2)C(=O)N(C)[C@@H](C)CNC(=O)C[C@H](Cc2ccc(Cl)cc2)N(C)C1=O [Compound 72]

>  <IC50 / nM>
0.5

$$$$
>  <compound>
COC[C@@H]1NC(=O)[C@H](C)N(Cc2ccc(OC(F)F)cc2Oc2ccc(-c3cnc(CN(C)C)n3C)cc2)C(=O)C[C@@H](Cc2ccccc2)C(=O)N(C)[C@@H](C)CNC(=O)C[C@H](Cc2ccc(Cl)cc2)N(C)C1=O [Compound 179]

>  <IC50 / nM>
0.6

$$$$
>  <compound>
COC[C@@H]1NC(=O)C(C)N(Cc2ccc(F)cc2Oc2ccc(-c3cnc(CN(C)C)n3C)cc2)C(=O)C[C@@H](Cc2ccccc2)C(=O)N(C)[C@H]2CCCC[C@@H]2NC(=O)C[C@H](Cc2ccc(Cl)cc2)N(C)C1=O (some centres unmarked) [Compound 228]

>  <IC50 / nM>
8.4

$$$$
>  <compound>
COC[C@@H]1NC(=O)[C@H](C)N(Cc2ccc(Cl)cc2Oc2ccc(-c3cnc(C4=CCOCC4)n3C)cc2)C(=O)C[C@@H](Cc2ccccc2)C(=O)N(C)[C@@H](C)CNC(=O)C[C@H](Cc2ccc(Cl)cc2)N(C)C1=O [Compound 271]

>  <IC50 / nM>
6.9

$$$$

(I) CCc1ccc(CN2C(=O)C[C@@H](Cc3ccccc3)C(=O)N(C)[C@@H](C)CNC(=O)C[C@H](Cc3ccc(Cl)cc3)N(C)C(=O)[C@H](COC)NC(=O)[C@@H]2CCF)c(Oc2ccc(-c3cnc(CN4CCCC4)n3C)cc2)c1 [Compound 26]
(II) COCCN(CCOC)C(=O)C[C@H]1C(=O)N[C@@H](COC)C(=O)N(C)[C@@H](Cc2ccc(Cl)cc2)CC(=O)N[C@H]2CCCC[C@@H]2N(C)C(=O)[C@H](Cc2ccccc2)CC(=O)N1Cc1ccc(Cl)cc1Oc1ccc(-c2cnc(CN(C)C)n2C)cc1 [Compound 218]
(III) COC[C@@H]1NC(=O)[C@H](CCCN2CCOCC2)N(Cc2ccc(Cl)cc2Oc2ccc(-c3cnc(CN(C)C)n3C)cc2)C(=O)C[C@@H](Cc2ccccc2)C(=O)N(C)[C@@H](C)[C@H](C)NC(=O)C[C@H](Cc2ccc(Cl)cc2)N(C)C1=O [Compound 283]
## Task Sort the compounds on IC50; start with the lowest figure. The reply should contain the labels ordered as requested.
## Result II, III, I
(II: 1 nM, III: 1.6 nM, I: 2.4 nM)

###

- target.or.system: human PCSK9 (Homo sapiens)
- assay.text: PCSK9 ligand binding TR-FRET assay (interference with binding of human PCSK9 to human LDLR)
- conditions.used: TR-FRET; human PCSK9 Alexa Fluor 647 / human LDLR extracellular domain-Europium Kryptate; read-out: PCSK9 FRET Assay IC50
pIC50: −log10 of the molar value.
experimental.endpoint: pIC50

Would you please look over these solved cases?
>  <molecule>
COC[C@@H]1NC(=O)[C@H](COC)N(Cc2ccc(Cl)cc2Oc2ccc(-c3cnc(CN(C)C)n3C)cc2)C(=O)C[C@@H](Cc2ccccc2)C(=O)N(C)[C@@H](C)CNC(=O)C[C@H](Cc2ccc(Cl)cc2)N(C)C1=O

>  <target.or.system>
human PCSK9 (Homo sapiens)

>  <pIC50>
7.02

$$$$
>  <molecule>
COC[C@@H]1NC(=O)[C@@H](CCN(C)C)N(Cc2ccc(Cl)cc2Oc2ccc(-c3cnc(CN(C)C)n3C)cc2)C(=O)C[C@@H](Cc2ccccc2)C(=O)N(C)[C@H]2CCCC[C@@H]2NC(=O)C[C@H](Cc2ccc(Cl)cc2)N(C)C1=O

>  <target.or.system>
human PCSK9 (Homo sapiens)

>  <pIC50>
7.62

$$$$
>  <molecule>
COC[C@@H]1NC(=O)[C@H](CC(=O)N2CC3(COC3)C2)N(Cc2ccc(Cl)cc2Oc2ccc(-c3cnc(CN(C)C)n3C)cc2)C(=O)C[C@@H](Cc2ccccc2)C(=O)N(C)C2CCCCC2NC(=O)C[C@H](Cc2ccc(Cl)cc2)N(C)C1=O (stereo in doubt)

>  <target.or.system>
human PCSK9 (Homo sapiens)

>  <pIC50>
8.70

$$$$

(1) COC[C@@H]1NC(=O)[C@H](CCC(=O)OC(C)(C)C)N(Cc2ccc(Cl)cc2Oc2ccc(-c3cnc(CN(C)C)n3C)cc2)C(=O)C[C@@H](Cc2ccccc2)C(=O)N(C)[C@@H](C)CNC(=O)C[C@H](Cc2ccc(Cl)cc2)N(C)C1=O
(2) COC[C@@H]1NC(=O)[C@@H](CCN(C)C)N(Cc2ccc(Cl)cc2Oc2ccc(-c3cnc(CN(C)C)n3C)cc2)C(=O)C[C@@H](Cc2ccccn2)C(=O)N(C)[C@H]2CCCC[C@@H]2NC(=O)C[C@H](Cc2ccc(Cl)cc2)N(C)C1=O
(3) COC[C@@H]1NC(=O)[C@H](C)N(Cc2ccc(Cl)cc2Oc2ccc(-c3cnc(CN(C)C)n3C)cc2)C(=O)C[C@@H](Cc2ccccc2)C(=O)N(C)[C@H]2C[C@H]2NC(=O)C[C@H](Cc2ccc(Cl)cc2)N(C)C1=O
(4) CC[C@H]1C(=O)N[C@@H](COC)C(=O)N(C)[C@@H](Cc2ccc(Cl)cc2F)CC(=O)NC[C@H](C)N(C)C(=O)[C@H](Cc2ccccc2)CC(=O)N1Cc1ccc(Cl)cc1Oc1ccc(-c2cnc(CN(C)C)n2C)cc1
## Task Order the records so the highest pIC50 appears first and the lowest last. Response field: labels, in requested order.
## Result 4, 1, 3, 2

###

- target.or.system: human PCSK9 (Homo sapiens, UniProt Q8NBP7)
- assay.text: PCSK9 ligand binding TR-FRET assay (interference with binding of human PCSK9 to human LDLR)
- conditions.used: TR-FRET; human PCSK9 Alexa Fluor 647 / human LDLR extracellular domain-Europium Kryptate; read-out: PCSK9 FRET Assay IC50
experimental.endpoint: IC50 (nM)

Worked examples follow.
>  <smiles.code>
COC[C@@H]1NC(=O)[C@H](C)N(Cc2ccc(Cl)cc2Oc2ccc(-c3cnc(CN(C)C)n3C)cc2)C(=O)C[C@@H](C)C(=O)N(C)[C@@H](C)CNC(=O)C[C@H](Cc2ccc(Cl)cc2)N(C)C1=O

>  <IC50 (nM)>
14.7

$$$$
>  <smiles.code>
COC[C@@H]1NC(=O)[C@H](C)N(Cc2ccc(Cl)cc2Oc2ccc(-n3cnc(CN4CCCC4)c3C)cc2)C(=O)C[C@@H](Cc2ccccc2)C(=O)N(C)[C@H]2CCCC[C@@H]2NC(=O)C[C@H](Cc2ccc(Cl)cc2)N(C)C1=O

>  <IC50 (nM)>
1.5

$$$$

(1) COC[C@@H]1NC(=O)[C@H](C)N(Cc2ccc(Cl)cc2Oc2ccc(-c3cnc(CN(C)C)n3C)cc2)C(=O)C[C@@H](Cc2cc(F)cc(F)c2F)C(=O)N(C)[C@@H](C)CNC(=O)C[C@H](Cc2ccc(Cl)cc2)N(C)C1=O
(2) COCC(=O)N1CCc2ncc(-c3ccc(Oc4cc(Cl)ccc4CN4C(=O)C[C@@H](Cc5ccccc5)C(=O)N(C)[C@@H](C)CNC(=O)C[C@H](Cc5ccc(Cl)cc5)N(C)C(=O)[C@H](COC)NC(=O)[C@@H]4C)cc3)cc2C1
## Task Sorting ascending by IC50, which comes first: 1 or 2 ? # respond with the chosen item's label
## Result 1

###

- target.or.system: human PCSK9 (Homo sapiens)
- assay.text: PCSK9 ligand binding TR-FRET assay (interference with binding of human PCSK9 to human LDLR)
- conditions.used: TR-FRET; human PCSK9 Alexa Fluor 647 / human LDLR extracellular domain-Europium Kryptate; read-out: PCSK9 FRET Assay IC50
pIC50: −log10 of the molar value.
experimental.endpoint: pIC50

In the examples that follow, each entry is paired with its recorded pIC50.
>  <smiles.code>
COC[C@@H]1NC(=O)[C@H](CCF)N(Cc2ccc(Cl)cc2Oc2ccc(-c3cnc(CN4CCCC4)n3C)cc2)C(=O)C[C@@H](Cc2ccccc2)C(=O)N(C)[C@@H](C)CNC(=O)C[C@H](Cc2ccc(Cl)cc2)N(C)C1=O

>  <experimental.endpoint>
pIC50

>  <numeric.value>
8.34

$$$$
>  <smiles.code>
C=CC[C@@H]1CC(=O)N(Cc2ccc(Cl)cc2Oc2ccc(-c3cnc(CN(C)C)n3C)cc2)[C@@H](CCCN2CCOCC2)C(=O)N[C@@H](COC)C(=O)N(C)[C@@H](Cc2ccc(Cl)cc2)CC(=O)N[C@H]2CCCC[C@@H]2N(C)C1=O

>  <experimental.endpoint>
pIC50

>  <numeric.value>
8.60

$$$$
>  <smiles.code>
C[C@H]1CNC(=O)C[C@H](Cc2ccc(Cl)cc2)N(C)C(=O)[C@H](C2COC2)NC(=O)[C@H](C)N(Cc2ccc(Cl)cc2Oc2ccc(-c3cnc(CN(C)C)n3C)cc2)C(=O)C[C@@H](Cc2ccccc2)C(=O)N1C

>  <experimental.endpoint>
pIC50

>  <numeric.value>
6.10

$$$$

(P) COC[C@@H]1NC(=O)[C@H](C)N(Cc2c(F)cc(Cl)cc2Oc2ccc(-c3cnc(CN4CCCC4)n3C)cc2)C(=O)C[C@@H](Cc2ccccc2)C(=O)N(C)[C@@H](C)CNC(=O)C[C@H](Cc2ccc(Cl)cc2)N(C)C1=O
(Q) COC[C@@H]1NC(=O)[C@H](C)N(Cc2ccc(Cl)cc2Oc2ccc(-c3cnc(CN(C)C)n3C)cn2)C(=O)C[C@@H](Cc2ccccc2)C(=O)N(C)[C@H]2CCCC[C@@H]2NC(=O)C[C@H](Cc2ccc(Cl)cc2)N(C)C1=O
(R) CCCC#Cc1ncc(-c2ccc(Oc3cc(Cl)ccc3CN3C(=O)C[C@@H](Cc4ccccc4)C(=O)N(C)[C@@H](C)CNC(=O)C[C@H](Cc4ccc(Cl)cc4)N(C)C(=O)[C@H](COC)NC(=O)[C@@H]3C)cc2)n1C
(S) CC[C@H](c1ncc(-c2ccc(Oc3cc(Cl)ccc3CN3C(=O)C[C@@H](Cc4ccccc4)C(=O)N(C)[C@H]4CCCC[C@@H]4NC(=O)C[C@H](Cc4ccc(Cl)cc4)N(C)C(=O)[C@H](COC)NC(=O)[C@@H]3C)cc2)n1C)N(C)C
## Task Rank by pIC50 (largest to smallest). Answer format: list of labels, ordered as asked.
## Result P, Q, S, R
(P: 9.00, Q: 8.52, S: 8.03, R: 7.22)
